test system: P. falciparum Dd2; assay: SYBR green I asexual blood stage proliferation assay (96 h); assay type: cell-based, Plasmodium falciparum; conditions: Plasmodium falciparum, DD2; 11-pt dose response, 96hr; read-out: P. falciparum Sybr Green I ABS 11-pt Reconfirmation Dose Response (96hr): Maximum inhibition (%)
Think of 90% as a floor: if Emax stands on it or above, it is YES; beneath it, NO.

Could you tell me if the measured Emax of CO[C@H]1CN(C(C)C)C[C@@H]1NC(=O)c1cc(-c2ccccc2O)n[nH]1 reaches 90% or more? YES

Test whether the molecule Cc1ccc(CN(CCN(C)C)Cc2c(C)nc3sccn23)o1 records Emax of 90% or higher. NO

Exam item: decide whether the reported Emax for Cc1cc(NC(=O)NC2CCN(C(C)C)CC2)c2ncccc2c1 is at least 90%. NO

Exam item: decide whether the reported Emax for COc1ccc(NC(=O)Nc2cnc(N3CCN(C)CC3)nc2)cc1Cl is at least 90%. NO

Please tell me: is the molecule O=S(=O)(NCC(c1ccsc1)N1CCCCCC1)c1cccs1 (centres unmarked) at or over 90% in terms of Emax? NO

Textbook exercise: given the entry OCCN1CCC(CNCc2ccccc2OC(F)(F)F)CC1 , state whether its Emax is greater than or equal to 90%. NO

Identify whether the reported Emax of the following molecule is 90% or greater: Clc1cccc(C[C@@H]2NCCC[C@@H]2Nc2ccccc2)c1 YES

Item CN(Cc1ccccc1-n1cccn1)C[C@@H]1CCCN2CCCC[C@H]12 with Emax of 90% or above? NO

Hello, I need to know if CCc1ccc(C2c3nc[nH]c3CCN2Cc2nccn2CC)nc1 (centres unmarked) has measured Emax not below 90%. Thanks! NO

Is Emax for COCCOc1ccccc1CNCC1COC2(CCCC2)O1 (centres unmarked) at or above 90%? NO

API: above_or_equal(metric=Emax, cutoff=90%) for item c1cc(N2CCC(CN3CCOCC3)CC2)c2sccc2n1 YES

Check if Emax >= 90% (inclusive). Item: Cc1cc(N2CCC(NC(C)Cc3ccsc3)CC2)nc(C)n1 (centres unmarked) NO

Please tell me: is the molecule CCc1ccc(CN(CCN(C)C)Cc2ccc(C)s2)nc1 at or over 90% in terms of Emax? YES

Tell me whether Emax is at least 90% here: Fc1ccc(C2(CNC3=NCCN3)CCCC2)cc1 YES

Evaluate CNc1cc(C)nc(NC2CCCN(C3Cc4ccccc4C3)C2)n1 (centres unmarked) : Emax at minimum 90%? YES

Item O=C(NCCc1ccccc1)NCCN1CCC(c2cccs2)CC1 with Emax of 90% or above? NO

Could you verify whether the entry COc1ccc(CN2CCNC(=O)CC2)cc1SC(F)(F)F shows Emax of no less than 90%? NO

###

tested on: P. falciparum (NF54) stage V gametocytes; test: Stage V gametocyte viability assay (MitoTracker Red CMXRos high content imaging); format: cell-based, Plasmodium falciparum; settings: Plasmodium falciparum, NF54, 72 h, read-out: Stg V Gam dose response IC50 (µM) (n=3), 10-point dose response, n=3, 72 h
Response field label takes YES when IC50 is strictly below 2 µM and NO in all other cases.

Take the compound Cc1nn(C)cc1CN1CCCC1c1cccc(Nc2nccs2)n1 (centres unmarked) and say whether its IC50 is less than 2 µM. YES

IC50 strictly < 2 µM for this compound? Cc1cc(C)n(C2=NC(NCCCO)c3c(sc4c3CCCC4)N2)n1 (centres unmarked) YES

In the record for Clc1cccc(C(NCc2ncc[nH]2)c2ccccn2)c1 (centres unmarked) , is IC50 less than 2 µM? NO

For CN(Cc1ccco1)C[C@H]1OC[C@@H]2CCN(Cc3ccccn3)C[C@@H]21 , is the recorded IC50 below the cut-off of 2 µM? NO

Field: below-cutoff. Rule: recorded IC50 strictly less than 2 µM. Subject: Cc1cn2c(n1)C(CNCc1cccc3c1OCO3)CCC2 (centres unmarked) YES

Field: below-cutoff. Rule: recorded IC50 strictly less than 2 µM. Subject: CC(C)(C)c1cn2c(n1)C(CNCc1cnn3ccccc13)CCC2 (centres unmarked) YES

Hi there! Is IC50 for CNc1cc(C)nc(NC2CCCN(C3Cc4ccccc4C3)C2)n1 (centres unmarked) below 2 µM, do you know? NO

IC50 strictly < 2 µM for this compound? CN1CCC(NCC(O)c2cccc(OCc3ccccc3)c2)CC1 (centres unmarked) NO

Is 2 µM strictly greater than the compound's reported IC50? compound: CCc1[nH]c2c(CNc3cc(C)nc(NC)n3)cc(C)cc2c1C NO

A record lists CC(C)N(CCNC(=O)c1[nH]nc2ccc(I)cc12)C(C)C . Is its IC50 below 2 µM? NO

Hello, is IC50 of the following compound strictly smaller than 2 µM? Cc1cnc2c(S(=O)(=O)NC3CCS(=O)(=O)C3)cccc2c1 (centres unmarked) NO

Could you please tell me whether IC50 recorded for CCSCC(C)NCc1cn2ccccc2n1 (centres unmarked) is less than 2 µM? YES

Would you kindly verify if IC50 of OC1(CN2CCC(Oc3cccc(C(F)(F)F)c3)CC2)CCNC1 (centres unmarked) is strictly less than 2 µM? NO

Does this compound meet the criterion IC50 < 2 µM? Cn1cccc1CNCC1CCCn2cc(C(C)(C)C)nc21 (centres unmarked) YES

Hello, is IC50 of the following compound strictly smaller than 2 µM? NCC1CCN(C2CCN(c3ccc(-c4ccco4)cc3)CC2)C1 (centres unmarked) YES

A record lists CN(C)c1nc(N)nc(CN2CCCC2c2cccs2)n1 (centres unmarked) . Is its IC50 below 2 µM? NO

Determine if Cc1cc2nc(C(C)C)cc(NCC(c3ccccn3)N(C)C)n2n1 (centres unmarked) shows IC50 strictly lower than 2 µM. YES
